Experiment: Intrinsic clearance in human liver microsomes at 1 uM after 30 mins in presence of NADPH by LC-MS/MS analysis
Assay type: ADME
Details: read-out: CLH
measurementName: microsomal CLint at 1 µM (µL/min/mg)

>>> reported("COc1nc2cccnc2n1[C@H]1C[C@@H](Nc2nc3ccccc3s2)C1")
80

[1] COc1nc2cccnc2n1-c1ccc(Nc2ccc(Cl)cn2)cc1
[2] COc1nc2cccnc2n1C1CCC(Nc2nc3ccccc3s2)CC1 (stereo not drawn)
input: Input pair: 1 , 2 . Output: entry with lower microsomal CLint at 1 µM. Record your answer as the label of the chosen record.
output: 1
(1: 32 µL/min/mg, 2: 101 µL/min/mg)
